Test system: Staphylococcus aureus
Test: Antibacterial activity against Staphylococcus aureus
Assay type: functional
measurement_kind: MIC (µg/mL)
Record the value in µg/mL, omitting the unit from your answer.

### Prompt Report measured MIC; entry is `Cc1ccc(NC(=O)c2cc3c(CO)cnc(C)c3o/c2=N\c2ccc(Oc3ccccc3)cc2)cc1`
### Response 50

### Prompt Report measured MIC; entry is `COc1ccccc1/N=c1\oc2c(C)ncc(CO)c2cc1C(=O)Nc1ccc(C)cc1`
### Response 100

### Prompt Report measured MIC; entry is `CCOc1ccc(/N=c2\oc3c(C)ncc(CO)c3cc2C(=O)Nc2cccc(C)c2)cc1`
### Response 50

### Prompt Report measured MIC; entry is `Cc1ncc(CO)c2cc(C(=O)Nc3ccccc3)/c(=N/c3ccccc3)oc12`
### Response 50

### Prompt Report measured MIC; entry is `COc1cc(NC(=O)c2cc3c(CO)cnc(C)c3o/c2=N\c2ccc(C(N)=O)cc2)cc(OC)c1`
### Response 50

### Prompt Report measured MIC; entry is `CCc1ccccc1/N=c1\oc2c(C)ncc(CO)c2cc1C(=O)Nc1ccc(C)cc1`
### Response 50

### Prompt Report measured MIC; entry is `Cc1ccc(NC(=O)c2cc3c(CO)cnc(C)c3o/c2=N\c2ccc(Cl)c(Cl)c2)cc1`
### Response 100

### Prompt Report measured MIC; entry is `Cc1ncc(CO)c2cc(C(=O)Nc3ccccc3)/c(=N/c3ccc4c(c3)OCO4)oc12`
### Response 50

### Prompt Report measured MIC; entry is `Cc1cccc(/N=c2\oc3c(C)ncc(CO)c3cc2C(=O)Nc2ccccc2)c1`
### Response 100

### Prompt Report measured MIC; entry is `CCc1ccc(/N=c2\oc3c(C)ncc(CO)c3cc2C(=O)Nc2ccccc2)cc1`
### Response 50

### Prompt Report measured MIC; entry is `Cc1ccc(NC(=O)c2cc3c(CO)cnc(C)c3o/c2=N\c2cccc(Cl)c2)cc1`
### Response 50

### Prompt Report measured MIC; entry is `Cc1ccc(/N=c2\oc3c(C)ncc(CO)c3cc2C(=O)Nc2ccccc2C)cc1C`
### Response 100

### Prompt Report measured MIC; entry is `Cc1cccc(/N=c2\oc3c(C)ncc(CO)c3cc2C(=O)Nc2ccccc2C)c1`
### Response 100

### Prompt Report measured MIC; entry is `COc1ccc(NC(=O)c2cc3c(CO)cnc(C)c3o/c2=N\c2ccc(Cl)c(Cl)c2)cc1`
### Response 12.5

### Prompt Report measured MIC; entry is `COc1cc(/N=c2\oc3c(C)ncc(CO)c3cc2C(=O)Nc2ccccc2)cc(OC)c1`
### Response 50

### Prompt Report measured MIC; entry is `COc1cc(/N=c2\oc3c(C)ncc(CO)c3cc2C(=O)Nc2cccc(C)c2)cc(OC)c1`
### Response 25

### Prompt Report measured MIC; entry is `Cc1ncc(CO)c2cc(C(=O)Nc3ccccc3)/c(=N/c3ccc(Oc4ccccc4)cc3)oc12`
### Response 50

### Prompt Report measured MIC; entry is `COc1ccc(/N=c2\oc3c(C)ncc(CO)c3cc2C(=O)Nc2cccc(C)c2)cc1OC`
### Response 50

### Prompt Report measured MIC; entry is `Cc1cccc(NC(=O)c2cc3c(CO)cnc(C)c3o/c2=N\c2ccc(C)c(C)c2)c1`
### Response 50

### Prompt Report measured MIC; entry is `COc1cccc(/N=c2\oc3c(C)ncc(CO)c3cc2C(=O)Nc2ccc(C)cc2)c1`
### Response 50

### Prompt Report measured MIC; entry is `CCOC(=O)c1ccc(/N=c2\oc3c(C)ncc(CO)c3cc2C(=O)Nc2ccccc2)cc1`
### Response 50

### Prompt Report measured MIC; entry is `Cc1ccc(NC(=O)c2cc3c(CO)cnc(C)c3o/c2=N\c2ccc(Br)cc2)cc1`
### Response 25

### Prompt Report measured MIC; entry is `Cc1cccc(NC(=O)c2cc3c(CO)cnc(C)c3o/c2=N\c2cccc(Cl)c2)c1`
### Response 100

### Prompt Report measured MIC; entry is `Cc1ccc(NC(=O)c2cc3c(CO)cnc(C)c3o/c2=N\c2ccccc2I)cc1`
### Response 25

### Prompt Report measured MIC; entry is `COc1ccc(NC(=O)c2cc3c(CO)cnc(C)c3o/c2=N\c2ccc(OC)c(OC)c2)c(OC)c1`
### Response 25

### Prompt Report measured MIC; entry is `Cc1ccc(/N=c2\oc3c(C)ncc(CO)c3cc2C(=O)Nc2cccc(C)c2)cc1`
### Response 50

### Prompt Report measured MIC; entry is `Cc1ccc2nc(-c3ccc(/N=c4\oc5c(C)ncc(CO)c5cc4C(=O)Nc4ccccc4)cc3)sc2c1`
### Response 100

### Prompt Report measured MIC; entry is `Cc1ncc(CO)c2cc(C(=O)Nc3ccccc3F)/c(=N/c3ccc(C(F)(F)F)cc3)oc12`
### Response 50

### Prompt Report measured MIC; entry is `Cc1cccc(NC(=O)c2cc3c(CO)cnc(C)c3o/c2=N\c2ccccc2)c1`
### Response 100
